# Tested on: human chronic granulocytic leukemia K562
# Assay Summary: MTT anti-proliferation, K562
# Format: cell-based
# Condition Details: Homo sapiens, K562, 72 h, K562, MTT, 72 hours, n = 3; read-out: Mean IC50 after 72 hours
pIC50: −log10 of the molar value.
Readout Type: pIC50

Form field pIC50, entry CCCCC/C=C/C(=O)CCc1ccc(O)c(OC)c1 : > 5.30
